measured_on: human muscarinic M4 receptor (Homo sapiens)
Construct: expressed in transfected cells
Sequence (P08173 whole entry): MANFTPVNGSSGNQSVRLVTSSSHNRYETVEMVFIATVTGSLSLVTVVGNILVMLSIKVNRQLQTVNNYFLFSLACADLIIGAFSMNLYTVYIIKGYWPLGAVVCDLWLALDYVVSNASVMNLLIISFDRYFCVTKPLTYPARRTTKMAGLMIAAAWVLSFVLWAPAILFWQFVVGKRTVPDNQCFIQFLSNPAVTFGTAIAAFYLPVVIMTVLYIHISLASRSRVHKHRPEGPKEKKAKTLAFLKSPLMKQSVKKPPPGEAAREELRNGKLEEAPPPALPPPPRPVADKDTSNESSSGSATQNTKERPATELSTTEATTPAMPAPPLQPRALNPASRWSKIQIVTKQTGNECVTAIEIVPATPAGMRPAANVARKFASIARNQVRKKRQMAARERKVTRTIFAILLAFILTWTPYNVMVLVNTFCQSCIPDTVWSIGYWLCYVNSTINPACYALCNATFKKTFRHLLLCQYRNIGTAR
experimental_details: Alphascreen Surefire phospho-ERK1/2 functional assay, M4
Format: cell-based
recorded_conditions: CHO cells stably expressing human M4; phospho-ERK1/2; * = variable results; read-out: pEC50 M4 (converted)
measured_property: EC50 (nM)
Please state the figure in nM; there is no need to write the unit.

compound	measured_on	output_unit	EC50
CCOC(=O)N1CCC2(CC(N3CCC(c4nc(Cl)c[nH]4)CC3)C2)C1 (single isomer, unassigned) [1-2 Isomer 2]	human muscarinic M4 receptor (Homo sapiens)	nM	25.1
CCOC(=O)N1CCC2(CC(N3CCC(c4nnnn4CC)CC3)C2)C1 (single isomer, unassigned) [1-65 Isomer 2]	human muscarinic M4 receptor (Homo sapiens)	nM	251
CCOC(=O)N1CCC2(CC(N3CCC([C@@H]4CCCN4C(=O)NCCOC)CC3)C2)C1 (single isomer, unassigned) [2-31 Isomer 2]	human muscarinic M4 receptor (Homo sapiens)	nM	3.16

Prompt: GET /values?readout=EC50&item= CCOC(=O)N1CCC2(CC(N3CCC(N4CCCC[C@@H]4C(=O)NC)CC3)C2)C1 (single isomer, unassigned) [4-16 Isomer 2]
Completion: 158

Prompt: Try this compound too: COC(=O)N1CCC2(CC(N3CCC(C4CCCNC4=O)CC3)C2)C1 (single isomer, unassigned) [4-2 Isomer 4]
Completion: 79.4

Prompt: Try this compound too: CCOC(=O)N1CCC2(CC(N3CCC(C4CCCN4C(=O)OC)CC3)C2)C1 (single isomer, unassigned) [2-11 Isomer 2]
Completion: 25.1

---

Measured EC50, listed per entry for reference.
measured_on: human muscarinic M1 receptor (Homo sapiens)
Sequence (P11229 whole entry): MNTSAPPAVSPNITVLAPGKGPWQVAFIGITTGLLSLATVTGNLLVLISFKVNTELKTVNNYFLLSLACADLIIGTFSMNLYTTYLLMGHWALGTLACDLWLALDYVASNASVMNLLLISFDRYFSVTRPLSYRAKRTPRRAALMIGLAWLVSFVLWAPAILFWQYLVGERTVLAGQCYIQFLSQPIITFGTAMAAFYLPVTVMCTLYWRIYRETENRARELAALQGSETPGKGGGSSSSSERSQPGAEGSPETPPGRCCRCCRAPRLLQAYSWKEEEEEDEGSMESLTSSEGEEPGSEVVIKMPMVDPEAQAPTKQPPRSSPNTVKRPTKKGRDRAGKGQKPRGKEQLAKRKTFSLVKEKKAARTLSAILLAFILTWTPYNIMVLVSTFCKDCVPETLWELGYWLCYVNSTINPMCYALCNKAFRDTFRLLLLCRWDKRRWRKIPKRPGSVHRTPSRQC
experimental_details: Alphascreen Surefire phospho-ERK1/2 functional assay, M1
Format: cell-based
recorded_conditions: CHO cells stably expressing human M1; phospho-ERK1/2; * = variable results; read-out: pEC50 M1 (converted)

These solved cases illustrate the format of a correct answer.
compound	result
CCOC(=O)N1CCC2(CC(N3CCC(N4CC(F)(F)C[C@H]4C(=O)NC)CC3)C2)C1 (single isomer, unassigned) [2-93 Isomer 2]	> 20000 nM
CCOC(=O)N1CCC2(CC(N3CCC(c4ccn[nH]4)CC3)C2)C1 (single isomer, unassigned) [1-18 Isomer 2]	126 nM
CCOC(=O)N1CCC2(CC(N3CCC(N4CCC[C@H]4C(=O)NC)CC3)C2)C1 (single isomer, unassigned) [2-85 Isomer 2]	2510 nM
CCOC(=O)N1CCC2(CC(N3CCC(n4ccc(C)n4)CC3)C2)C1 (single isomer, unassigned) [1-44 Isomer 2]	79.4 nM
CCOC(=O)N1CCC2(CC(N3CCC(N4CCC[C@@H]4c4cccs4)CC3)C2)C1 (single isomer, unassigned) [2-131 Isomer 2]	501 nM
CCOC(=O)N1CCC2(CC(N3CCC(N4CC(F)(F)C[C@H]4C(=O)N(C)C)CC3)C2)C1 (single isomer, unassigned) [2-94 Isomer 2]	> 20000 nM

Prompt: Lab request: please report EC50 under test system human muscarinic M1 receptor (Homo sapiens) for CCOC(=O)N1CCC2(CC(N3CCC(N4C(=O)OC[C@@H]4C)CC3)C2)C1 (single isomer, unassigned) [2-121 Isomer 2]
Completion: 1000 nM

Prompt: Try this compound too: CCOC(=O)N1CCC2(CC(N3CCC(N4CCC[C@H]4C(F)(F)F)CC3)C2)C1 (single isomer, unassigned) [2-101 Isomer 2]
Completion: 10000 nM

Prompt: Try this compound too: CCOC(=O)N1CCC2(CC(N3CCC(c4nc(Cl)c[nH]4)CC3)C2)C1 (single isomer, unassigned) [1-2 Isomer 2]
Completion: 251 nM

Prompt: Try this compound too: COC(=O)N1CCC2(CC(N3CCC(c4nn(C)cc4C)CC3)C2)C1 (single isomer, unassigned) [1-55 Isomer 2]
Completion: 5010 nM

Prompt: Try this compound too: CCOC(=O)N1CCC2(CC(N3CCC(c4nccn4C(=O)OCC)CC3)C2)C1 (single isomer, unassigned) [1-8 Isomer 2]
Completion: 316 nM

Prompt: Try this compound too: CCOC(=O)N1CCC2(CC(N3CCC([C@@H]4CCCN4c4ccccc4)CC3)C2)C1 (single isomer, unassigned) [2-77 Isomer 2]
Completion: 251 nM

---

Measured Emax, listed per entry for reference.
measured_on: human muscarinic M2 receptor (Homo sapiens, UniProt P08172)
Sequence (P08172 1-466): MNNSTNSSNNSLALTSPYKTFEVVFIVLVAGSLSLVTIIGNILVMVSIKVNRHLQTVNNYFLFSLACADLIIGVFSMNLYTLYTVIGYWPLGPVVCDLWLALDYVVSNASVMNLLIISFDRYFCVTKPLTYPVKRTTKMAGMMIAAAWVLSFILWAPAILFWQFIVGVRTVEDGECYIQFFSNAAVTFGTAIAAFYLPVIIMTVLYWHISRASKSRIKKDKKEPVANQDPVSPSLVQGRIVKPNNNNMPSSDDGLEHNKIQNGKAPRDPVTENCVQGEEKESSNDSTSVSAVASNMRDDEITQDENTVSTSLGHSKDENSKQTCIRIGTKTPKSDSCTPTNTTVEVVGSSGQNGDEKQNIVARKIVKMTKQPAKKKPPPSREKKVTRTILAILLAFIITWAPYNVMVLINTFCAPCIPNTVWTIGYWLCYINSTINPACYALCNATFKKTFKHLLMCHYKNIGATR
experimental_details: Alphascreen Surefire phospho-ERK1/2 functional assay, M2
recorded_conditions: CHO, read-out: % Emax cf. ACh, M2, CHO cells stably expressing human M2; relative to ACh
Please state the figure in %; there is no need to write the unit.

compound	numeric_value
CCOC(=O)N1CCC2(CC(N3CCC(C4CCCN4C(=O)C(F)(F)F)CC3)C2)C1 (single isomer, unassigned) [2-4 Isomer 2]	2
CCOC(=O)N1CCC2(CC(N3CCC(N4CCCC4=O)CC3)C2)C1 (single isomer, unassigned) [2-111 Isomer 2]	1
CCOC(=O)N1CCC2(CC(N3CCC(c4nccn4CC#N)CC3)C2)C1 (single isomer, unassigned) [1-52 Isomer 2]	15

Prompt: GET /values?readout=Emax&item= CCOC(=O)N1CCC2(CC(N3CCC(C4CCCN4C(=O)NC)CC3)C2)C1 (single isomer, unassigned) [2-16 Isomer 2]
Completion: 53

Prompt: Try this compound too: CCOC(=O)N1CCC2(CC(N3CCC(c4ncc(Cl)n4C)CC3)C2)C1 (single isomer, unassigned) [1-14 Isomer 2]
Completion: 27

Prompt: Try this compound too: COC(=O)N1CCC2(CC(N3CCC([C@@H]4CCCN4c4ccccn4)CC3)C2)C1 (single isomer, unassigned) [2-78 Isomer 2]
Completion: 27

Prompt: Try this compound too: CCOC(=O)N1CCC2(CC(N3CCC(N4CCCOC4=O)CC3)C2)C1 (single isomer, unassigned) [4-7 Isomer 2]
Completion: 1

---

measured_on: human muscarinic M4 receptor (Homo sapiens)
Construct: expressed in transfected cells
experimental_details: Alphascreen Surefire phospho-ERK1/2 functional assay, M4
Assay type: cell-based
recorded_conditions: CHO cells stably expressing human M4; phospho-ERK1/2; * = variable results; read-out: pEC50 M4 (converted)
Measured EC50, listed per entry for reference.
Please state the figure in nM; there is no need to write the unit.

molecule	measured_property	numeric_value
[2H]C([2H])(C)OC(=O)N1CCC2(CC(N3CCC(n4cccn4)CC3)C2)C1 (single isomer, unassigned) [1-68 Isomer 2]	EC50	6.31

Prompt: GET /values?readout=EC50&item= CCOC(=O)N1CCC2(CC(N3CCC(N4CCCCC4)CC3)C2)C1 (single isomer, unassigned) [4-10 Isomer 2]
Completion: 251

Prompt: Try this molecule too: CCOC(=O)N1CCC2(CC(N3CCC(C4CCCN4C)CC3)C2)C1 (single isomer, unassigned) [2-22 Isomer 2]
Completion: 316

Prompt: Try this molecule too: COC(=O)N1CCC2(CC(N3CCC(n4ccc(C)n4)CC3)C2)C1 (single isomer, unassigned) [1-45 Isomer 2]
Completion: 20

Prompt: Try this molecule too: CCOC(=O)N1CCC2(CC(N3CCC([C@@H]4CCCN4C(=O)OCc4ccccn4)CC3)C2)C1 (single isomer, unassigned) [2-64 Isomer 2]
Completion: 3.16

Prompt: Try this molecule too: CCOC(=O)N1CCC2(CC(N3CCC(c4nnnn4C4CC4)CC3)C2)C1 (single isomer, unassigned) [1-67 Isomer 2]
Completion: 316

Prompt: Try this molecule too: CCOC(=O)N1CCC2(CC(N3CCC(O)(c4ncc[nH]4)CC3)C2)C1 (single isomer, unassigned) [1-37 Isomer 2]
Completion: 501

Prompt: Try this molecule too: CCOC(=O)N1CCC2(CC(N3CCC(c4nnc(CC)[nH]4)CC3)C2)C1 (single isomer, unassigned) [1-27 Isomer 2]
Completion: 398

---

measured_on: human muscarinic M3 receptor (Homo sapiens, UniProt P20309)
Sequence (P20309 whole entry): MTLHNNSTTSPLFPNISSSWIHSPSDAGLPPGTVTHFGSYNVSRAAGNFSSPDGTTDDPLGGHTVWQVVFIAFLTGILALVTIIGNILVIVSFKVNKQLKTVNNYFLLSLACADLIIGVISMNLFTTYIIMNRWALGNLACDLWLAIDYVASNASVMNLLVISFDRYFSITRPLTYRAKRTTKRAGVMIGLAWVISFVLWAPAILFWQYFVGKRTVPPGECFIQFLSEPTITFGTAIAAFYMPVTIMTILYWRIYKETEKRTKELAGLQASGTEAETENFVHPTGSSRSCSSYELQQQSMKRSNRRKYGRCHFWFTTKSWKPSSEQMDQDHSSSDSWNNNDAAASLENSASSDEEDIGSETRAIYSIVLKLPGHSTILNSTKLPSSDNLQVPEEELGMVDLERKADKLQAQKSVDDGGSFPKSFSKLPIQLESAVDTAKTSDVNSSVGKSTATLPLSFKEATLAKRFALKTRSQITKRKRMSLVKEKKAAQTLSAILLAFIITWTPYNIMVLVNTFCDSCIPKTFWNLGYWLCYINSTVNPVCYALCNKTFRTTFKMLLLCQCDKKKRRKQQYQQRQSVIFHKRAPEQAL
experimental_details: Alphascreen Surefire phospho-ERK1/2 functional assay, M3
recorded_conditions: CHO, read-out: % Emax cf. ACh, M3, CHO cells stably expressing human M3; relative to ACh
Rule: measured Emax below 7% gets condition met; anything equal to or greater than 7% gets condition not met.

Some solved entries appear below for comparison.
molecule	measured_on	class_label
CCOC(=O)N1CCC2(CC(N3CCC(N4CCCC45CCOC5=O)CC3)C2)C1 (single isomer, unassigned) [2-96 Isomer 2]	human muscarinic M3 receptor (Homo sapiens, UniProt P20309)	condition met
CCOC(=O)N1CCC2(CC(N3CCC([C@@H]4CCCN4C(=O)N(C)C)CC3)C2)C1 (single isomer, unassigned) [2-21 Isomer 2]	human muscarinic M3 receptor (Homo sapiens, UniProt P20309)	condition met
CCOC(=O)N1CCC2(CC(N3CCC([C@@H]4CCCN4CC(F)(F)F)CC3)C2)C1 (single isomer, unassigned) [2-69 Isomer 2]	human muscarinic M3 receptor (Homo sapiens, UniProt P20309)	condition met

Prompt: Is the reported Emax for CCOC(=O)N1CCC2(CC(N3CCC(n4nccn4)CC3)C2)C1 (single isomer, unassigned) [1-61 Isomer 2] strictly below 7%?
Completion: condition met

Prompt: Try this molecule too: CCOC(=O)N1CCC2(CC(N3CCC([C@@H]4CCCN4C(=O)NC(C)C)CC3)C2)C1 (single isomer, unassigned) [2-25 Isomer 2]
Completion: condition met

Reference for the values: patent US9926297B2
